Target: DYRK1B (Homo sapiens, UniProt Q9Y463)
Construct: purchased Eurofins; host or cells: E. coli BL21-derived (T7 phage display) or HEK-293
Sequence (Q9Y463 whole entry, species assumed): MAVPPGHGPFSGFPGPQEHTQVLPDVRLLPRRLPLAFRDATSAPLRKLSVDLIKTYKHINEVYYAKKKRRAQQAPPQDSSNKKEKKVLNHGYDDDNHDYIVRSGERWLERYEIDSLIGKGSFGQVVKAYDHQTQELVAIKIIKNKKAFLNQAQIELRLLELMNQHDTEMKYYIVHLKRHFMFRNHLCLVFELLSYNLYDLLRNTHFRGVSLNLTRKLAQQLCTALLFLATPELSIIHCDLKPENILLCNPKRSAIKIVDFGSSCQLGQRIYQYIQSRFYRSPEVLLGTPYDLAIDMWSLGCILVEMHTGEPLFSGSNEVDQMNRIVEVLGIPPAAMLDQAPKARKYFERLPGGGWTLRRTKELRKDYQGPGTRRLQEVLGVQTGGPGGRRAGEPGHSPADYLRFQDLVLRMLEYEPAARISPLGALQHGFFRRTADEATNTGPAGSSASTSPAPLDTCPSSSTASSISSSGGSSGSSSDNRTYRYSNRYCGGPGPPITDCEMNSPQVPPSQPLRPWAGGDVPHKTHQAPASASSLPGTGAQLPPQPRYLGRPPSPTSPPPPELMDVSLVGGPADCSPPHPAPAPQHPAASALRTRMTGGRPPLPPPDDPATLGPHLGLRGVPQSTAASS
Assay: HiBiT split luciferase assay of targeted degradation of DYRK1B in Flp-In T-REx 293 cells
Assay type: cell-based
Settings: 300 nM compound, 24 h, HiBiT-tagged DYRK1B in Flp-In T-REx 293 cells, normalized to vehicle; read-out: Relative Degradation at 300 nM DYRK1B
assay_readout: inhibition at 0.3 µM

>>> result("Cc1nc2ccc(-c3ccnc(N)c3)nc2n1-c1ccc(N2CCN(c3ccc(N4CCC(C(=O)N5CCC(n6cc(CNc7cccc8c7C(=O)N(C7CCC(=O)NC7=O)C8=O)cn6)CC5)CC4)nc3)CC2)c(F)c1 (stereo not drawn) [Compound 26]")
"30 to 50%"

Prompt: Please look up its inhibition at 0.3 µM: Cc1nc2ccc(-c3ccnc(N)c3)nc2n1-c1ccc(N2CCN(CCOCCOCCC(=O)N3CCN(Cc4ccc(CNc5cccc6c5CN(C5CCC(=O)NC5=O)C6=O)cc4)CC3)CC2)c(F)c1 (stereo not drawn) [Compound 10]
Completion: < 30%

Prompt: Quick check: inhibition at 0.3 µM of Cc1nc2ccc(-c3ccnc(N)c3)nc2n1-c1cc(F)c(N2CCN(CC#Cc3ccc(N4CCC(C(=O)N5CCC(n6cc(CNc7cccc8c7C(=O)N(C7CCC(=O)NC7=O)C8=O)cn6)CC5)CC4)nc3)CC2)c(F)c1 (stereo not drawn) [Compound 23] ?
Completion: > 50%

Prompt: Field request: inhibition at 0.3 µM | item: Cc1nc2ccc(-c3ccnc(N)c3)nc2n1-c1ccc(N2CCN(CC#Cc3ccc(N4CCC(C(=O)N5CCC(n6cc(CNc7cccc8c7C(=O)N(C7CCC(=O)N(C)C7=O)C8=O)cn6)CC5)CC4)nc3)CC2)c(F)c1 (stereo not drawn) [Compound 31]
Completion: < 30%
